# RUN_PARAMETERS: in ethyl acetate, 293.15 K
MEASURE: solubility (mole fraction)

Query: Tell me its solubility (mole fraction) given CCCN(CCc1cccs1)[C@H]1CCc2c(O)cccc2C1 as the entry.
Reply: 0.0437

###

# RUN_PARAMETERS: in ethanol, 288.15 K
MEASURE: solubility (mole fraction)
Lab note: record the figure alone, no unit after it.

Query: Look up and report measured solubility (mole fraction) for this entry: CCCN(CCc1cccs1)[C@H]1CCc2c(O)cccc2C1
Reply: 0.00677

###

# RUN_PARAMETERS: in n-propyl acetate, 303.15 K
MEASURE: solubility (mole fraction)
Write no unit; give the number alone.

Query: Quickly give me recorded solubility (mole fraction) for CCCN(CCc1cccs1)[C@H]1CCc2c(O)cccc2C1
Reply: 0.0612
